Target: T1, human CD47 on cells (SHP-77 tumor cells, human red blood cells, CCRF-CEM cells, human CD47 CHO-K1 stable cell … (human, UniProt Q08722 19-323))
T1 construct: whole, on cells; also called RBC
Test: flow cytometry on human RBCs;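 note: antibody binding measured by flow cytometry as geometric mean fluorescence intensity over a range of antibody concentrations, with EC50 and maximum taken from a sigmoidal dose-response fit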
Assign EC50 to each entry below.
A bare number is not enough; add the unit after it.

Previously resolved entries follow.
>>> resultvalue("108VH10.Mo / 108VL10.Me (antibody, V domains shown, 4D5-framework series; also called VH10.Mo VL10.Me) VH: EVQLVESGGGLVQPGGSLRLSCAASGFTFSHHWIHWVRQAPGKGLEWVAMIDASDSETRLSDSFKGRFTISADTSKNTAYLQMNSLRAEDTAVYYCSRLGRYYFDYWGQGTLVTVSS VL: DIQMTQSPSSLSASVGDRVTITCRASQSISSYLNWYQQKPGKAPKLLIYGASSRYSGVPSRFSGSRSGTDFTLTISSLQPEDFATYYCGESYGHLYTFGQGTKVEIK")
"3.4 nM"
>>> resultvalue("108VH5.M25 / 108VL1.M5 (antibody, human IgG4 S228P, kappa, V domains shown, Full-length IgG4 (S228P), kappa; also called VH5.M25 VL1.M5) VH: EVQLVQSGAEVKKPGASVKVSCKASGYTFTHHWMHWVRQAPGQGLEWMGMIDASDRETRYAQKFQGRVTMTRDTSTSTVYMELSSLRSEDTAVYYCARLGRYYFDYWGQGTLVTVSS VL: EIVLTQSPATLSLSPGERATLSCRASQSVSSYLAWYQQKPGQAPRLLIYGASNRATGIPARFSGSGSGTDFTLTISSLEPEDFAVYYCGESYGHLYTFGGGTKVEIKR")
"4 nM"
>>> resultvalue("108VH5.M23 / 108VL1.M5 (antibody, human IgG4 S228P, kappa, V domains shown, Full-length IgG4 (S228P), kappa; also called VH5.M23 VL1.M5) VH: EVQLVQSGAEVKKPGASVKVSCKASGYTFTHHWMHWVRQAPGQGLEWMGMIDASDKETRYAQKFQGRVTMTRDTSTSTVYMELSSLRSEDTAVYYCARLGRYYFDYWGQGTLVTVSS VL: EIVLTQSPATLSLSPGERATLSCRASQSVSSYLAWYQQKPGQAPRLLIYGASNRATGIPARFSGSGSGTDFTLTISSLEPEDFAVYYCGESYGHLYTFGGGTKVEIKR")
"5.8 nM"

// moving on: another record for EC50
Exercise: Identify measured EC50 corresponding to 108VH5.M24 / 108VL1.M5 (antibody, human IgG4 S228P, kappa, V domains shown, Full-length IgG4 (S228P), kappa; also called VH5.M24 VL1.M5) VH: EVQLVQSGAEVKKPGASVKVSCKASGYTFTHHWMHWVRQAPGQGLEWMGMIDASDLETRYAQKFQGRVTMTRDTSTSTVYMELSSLRSEDTAVYYCARLGRYYFDYWGQGTLVTVSS VL: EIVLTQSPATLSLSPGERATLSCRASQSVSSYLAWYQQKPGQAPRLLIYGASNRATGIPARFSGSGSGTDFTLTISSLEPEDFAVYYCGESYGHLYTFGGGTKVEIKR
Key: 4 nM

# credit: patent US20260132197A1
